- stated_conditions: in vivo
Where no end group is shown, it is not given here.
Exercise: state measured T1/2β (half-life) for each of the substances provided.
Answer in h, number only, no unit symbol.

Quick one: give measured T1/2β (half-life) for mPEG-SC20k-Arg-Gly-Ala-Asp-Arg-Ala-Gly-Gly-Gly-Gly-Arg-Gly-Asp ({mPEG‑SC 20 kDa}-RGADRAGGGGRGD) [mPEG-SC20k-HM-1]
21.46

Quick one: give measured T1/2β (half-life) for mPEG-SC40k-Arg-Gly-Ala-Asp-Arg-Ala-Gly-Gly-Gly-Gly-Arg-Gly-Asp ({mPEG‑SC 40 kDa}-RGADRAGGGGRGD) [mPEG-SC40k-HM-1]
42.19

Quick one: give measured T1/2β (half-life) for mPEG-SC10k-Arg-Gly-Ala-Asp-Arg-Ala-Gly-Gly-Gly-Gly-Arg-Gly-Asp ({mPEG‑SC 10 kDa}-RGADRAGGGGRGD) [mPEG-SC10k-HM-1]
15.18

Quick one: give measured T1/2β (half-life) for mPEG-ALD20k-Arg-Gly-Ala-Asp-Arg-Ala-Gly-Gly-Gly-Gly-Arg-Gly-Asp ({mPEG‑ALD 20 kDa}-RGADRAGGGGRGD) [mPEG-ALD20k-HM-1]
22.65

Quick one: give measured T1/2β (half-life) for mPEG-SC5k-Arg-Gly-Ala-Asp-Arg-Ala-Gly-Gly-Gly-Gly-Arg-Gly-Asp ({mPEG‑SC 5 kDa}-RGADRAGGGGRGD) [mPEG-SC5k-HM-1]
8.31

Quick one: give measured T1/2β (half-life) for mPEG-ALD5k-Arg-Gly-Ala-Asp-Arg-Ala-Gly-Gly-Gly-Gly-Arg-Gly-Asp ({mPEG‑ALD 5 kDa}-RGADRAGGGGRGD) [mPEG-ALD5k-HM-1]
9.13

Quick one: give measured T1/2β (half-life) for mPEG-ALD10k-Arg-Gly-Ala-Asp-Arg-Ala-Gly-Gly-Gly-Gly-Arg-Gly-Asp ({mPEG‑ALD 10 kDa}-RGADRAGGGGRGD) [mPEG-ALD10k-HM-1]
16.46

Quick one: give measured T1/2β (half-life) for mPEG-bALD40k-Arg-Gly-Ala-Asp-Arg-Ala-Gly-Gly-Gly-Gly-Arg-Gly-Asp ({mPEG‑bALD 40 kDa}-RGADRAGGGGRGD) [mPEG-bALD40k-HM-1]
43.88

Quick one: give measured T1/2β (half-life) for mPEG2-NHS40k-Arg-Gly-Ala-Asp-Arg-Ala-Gly-Gly-Gly-Gly-Arg-Gly-Asp ({mPEG2‑NHS 40 kDa}-RGADRAGGGGRGD) [mPEG2-NHS40k-HM-1]
42.25

Quick one: give measured T1/2β (half-life) for mPEG2-NHS10k-Arg-Gly-Ala-Asp-Arg-Ala-Gly-Gly-Gly-Gly-Arg-Gly-Asp ({mPEG2‑NHS 10 kDa}-RGADRAGGGGRGD) [mPEG2-NHS10k-HM-1]
15.27

Quick one: give measured T1/2β (half-life) for mPEG2-NHS20k-Arg-Gly-Ala-Asp-Arg-Ala-Gly-Gly-Gly-Gly-Arg-Gly-Asp ({mPEG2‑NHS 20 kDa}-RGADRAGGGGRGD) [mPEG2-NHS20k-HM-1]
22.38
